# target.entity: Adenosine receptor A1 (Homo sapiens, UniProt P30542)
# Sequence (P30542 whole entry): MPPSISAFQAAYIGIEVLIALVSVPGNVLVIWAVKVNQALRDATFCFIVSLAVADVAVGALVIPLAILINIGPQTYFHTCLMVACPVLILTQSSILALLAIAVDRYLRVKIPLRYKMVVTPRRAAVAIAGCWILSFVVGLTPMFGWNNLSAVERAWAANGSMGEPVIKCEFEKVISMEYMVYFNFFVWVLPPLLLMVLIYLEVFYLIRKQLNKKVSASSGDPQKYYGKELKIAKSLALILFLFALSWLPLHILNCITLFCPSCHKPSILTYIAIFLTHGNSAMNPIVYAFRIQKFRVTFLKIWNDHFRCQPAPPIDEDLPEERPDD
The following compounds are listed with their measured Ki values.
# number only, unit nM dropped from output

{"columns": ["compound", "units.of.measure", "Ki"],
 "data": [
  ["Cc1ccc(CNc2ncc(C(=O)O)c3nc(-c4ccco4)nn23)cc1", "nM", 2730],
  ["CCCCC(CC)CNc1ncc(C(=O)O)c2nc(-c3ccco3)nn12 (stereo not drawn)", "nM", 1780],
  ["CCOC(=O)c1cnc(NC(c2ccccc2)c2ccccc2)n2nc(-c3ccco3)nc12", "nM", 943]
]}

## Input Given the compound "CCOC(=O)c1cnc(NCCOC)n2nc(-c3ccco3)nc12" , write its reported Ki.
## Output 2270

## Input Given the compound "CCOC(=O)c1cnc(NCc2ccc(Cl)cc2)n2nc(-c3ccco3)nc12" , write its reported Ki.
## Output 866

## Input Given the compound "CCOC(=O)c1cnc(NCc2ccc(-c3ccccc3)cc2)n2nc(-c3ccco3)nc12" , write its reported Ki.
## Output 890

====

# target.entity: Adenosine receptor A2b (Homo sapiens)
# Sequence (P29275 whole entry): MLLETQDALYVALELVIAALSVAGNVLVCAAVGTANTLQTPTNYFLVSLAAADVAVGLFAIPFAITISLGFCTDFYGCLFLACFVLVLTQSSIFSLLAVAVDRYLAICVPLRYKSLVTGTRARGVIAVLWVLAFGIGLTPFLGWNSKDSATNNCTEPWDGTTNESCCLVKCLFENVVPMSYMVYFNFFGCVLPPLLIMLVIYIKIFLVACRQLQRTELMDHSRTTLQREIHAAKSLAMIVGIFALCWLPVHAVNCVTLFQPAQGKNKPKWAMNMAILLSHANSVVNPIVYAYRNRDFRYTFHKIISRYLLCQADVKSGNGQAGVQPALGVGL
# assay.notes: Antagonist activity at human adenosine A2B receptor expressed in CHO cells assessed as inhibition of NECA-stimulated adenylyl cyclase activity
measured.property: Ki

## Input Given the compound CCCCC(CC)CNc1ncc(C(=O)O)c2nc(-c3ccco3)nn12 (configuration not stated) , write its reported Ki.
## Output > 10 µM

## Input Given the compound "CCOC(=O)c1cnc(NC)n2nc(-c3ccco3)nc12" , write its reported Ki.
## Output 2.45 µM

## Input Given the compound "CNC(=O)c1cnc(NC(=O)Nc2ccccc2)n2nc(-c3ccco3)nc12" , write its reported Ki.
## Output 1.18 µM

## Input Given the compound "COc1ccc(CCCn2ncc3c2nc(N)n2nc(-c4ccco4)nc32)cc1" , write its reported Ki.
## Output > 10 µM

====

# target.entity: Adenosine receptor A3 (Homo sapiens, UniProt P0DMS8)
# Sequence (P0DMS8 whole entry): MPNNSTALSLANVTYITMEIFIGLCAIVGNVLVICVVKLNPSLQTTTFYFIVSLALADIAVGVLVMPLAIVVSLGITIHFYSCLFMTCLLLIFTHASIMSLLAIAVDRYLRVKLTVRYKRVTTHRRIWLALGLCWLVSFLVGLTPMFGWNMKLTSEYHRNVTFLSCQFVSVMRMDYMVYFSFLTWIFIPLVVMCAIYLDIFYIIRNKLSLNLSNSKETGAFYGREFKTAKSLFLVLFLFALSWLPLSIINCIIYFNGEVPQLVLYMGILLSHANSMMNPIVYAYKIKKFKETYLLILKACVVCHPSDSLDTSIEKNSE
The following molecules are listed with their measured pKi values.
Units for pKi: none; it is -log10 of a concentration expressed in mol/L.

{"columns": ["molecule", "target.entity", "pKi"],
 "data": [
  ["CCOC(=O)c1cnc(NCc2ccc(C(F)(F)F)cc2)n2nc(-c3ccco3)nc12", "Adenosine receptor A3 (Homo sapiens, UniProt P0DMS8)", 6.49]
]}

## Input // output pKi; input "CNC(=O)c1cnc(N)n2nc(-c3ccco3)nc12" ; system Adenosine receptor A3 (Homo sapiens, UniProt P0DMS8)
## Output 6.22

## Input // output pKi; input "CCOC(=O)c1cnc(NCc2ccc(Cl)cc2)n2nc(-c3ccco3)nc12" ; system Adenosine receptor A3 (Homo sapiens, UniProt P0DMS8)
## Output 7.25

## Input // output pKi; input "CCOC(=O)c1cnc(N(C)C)n2nc(-c3ccco3)nc12" ; system Adenosine receptor A3 (Homo sapiens, UniProt P0DMS8)
## Output 6.56

## Input // output pKi; input "O=C(Cc1ccccc1)Nc1ncc(C(=O)NCCc2ccccc2)c2nc(-c3ccco3)nn12" ; system Adenosine receptor A3 (Homo sapiens, UniProt P0DMS8)
## Output 6.26

## Input // output pKi; input "O=C(O)c1cnc(NCc2ccc(-c3ccccc3)cc2)n2nc(-c3ccco3)nc12" ; system Adenosine receptor A3 (Homo sapiens, UniProt P0DMS8)
## Output 4.55

## Input // output pKi; input "CCCCCNc1ncc(C(=O)O)c2nc(-c3ccco3)nn12" ; system Adenosine receptor A3 (Homo sapiens, UniProt P0DMS8)
## Output 4.58

## Input // output pKi; input "Nc1ncc(C(=O)NCCc2ccccc2)c2nc(-c3ccco3)nn12" ; system Adenosine receptor A3 (Homo sapiens, UniProt P0DMS8)
## Output 6.85

## Input // output pKi; input "CCOC(=O)c1cnc(NC2CCC2)n2nc(-c3ccco3)nc12" ; system Adenosine receptor A3 (Homo sapiens, UniProt P0DMS8)
## Output 7.93

## Input // output pKi; input "CCNc1ncc(C(=O)OCC)c2nc(-c3ccco3)nn12" ; system Adenosine receptor A3 (Homo sapiens, UniProt P0DMS8)
## Output 8.48

## Input // output pKi; input "O=C(O)c1cnc(NCC2CCCCC2)n2nc(-c3ccco3)nc12" ; system Adenosine receptor A3 (Homo sapiens, UniProt P0DMS8)
## Output 4.80

## Input // output pKi; input "CCOC(=O)c1cnc(NC(C)C)n2nc(-c3ccco3)nc12" ; system Adenosine receptor A3 (Homo sapiens, UniProt P0DMS8)
## Output 8.02

## Input // output pKi; input "CCOC(=O)c1cnc(NCc2ccccc2)n2nc(-c3ccco3)nc12" ; system Adenosine receptor A3 (Homo sapiens, UniProt P0DMS8)
## Output 8.00

## Input // output pKi; input "COc1ccc(CNc2ncc(C(=O)O)c3nc(-c4ccco4)nn23)cc1" ; system Adenosine receptor A3 (Homo sapiens, UniProt P0DMS8)
## Output 5.26

## Input // output pKi; input "O=C(O)c1cnc(NC2CC2)n2nc(-c3ccco3)nc12" ; system Adenosine receptor A3 (Homo sapiens, UniProt P0DMS8)
## Output 6.78

## Input // output pKi; input "CCOC(=O)c1cnc(N2CCCCC2)n2nc(-c3ccco3)nc12" ; system Adenosine receptor A3 (Homo sapiens, UniProt P0DMS8)
## Output 5.75

## Input // output pKi; input "CNC(=O)c1cnc(NCc2ccc(OC)c(OC)c2)n2nc(-c3ccco3)nc12" ; system Adenosine receptor A3 (Homo sapiens, UniProt P0DMS8)
## Output 6.55

## Input // output pKi; input "CCOC(=O)c1cnc(NCC(C)C)n2nc(-c3ccco3)nc12" ; system Adenosine receptor A3 (Homo sapiens, UniProt P0DMS8)
## Output 7.61

====

List of Ki tested on Adenosine receptor A2a (Homo sapiens).
Sequence (P29274 whole entry): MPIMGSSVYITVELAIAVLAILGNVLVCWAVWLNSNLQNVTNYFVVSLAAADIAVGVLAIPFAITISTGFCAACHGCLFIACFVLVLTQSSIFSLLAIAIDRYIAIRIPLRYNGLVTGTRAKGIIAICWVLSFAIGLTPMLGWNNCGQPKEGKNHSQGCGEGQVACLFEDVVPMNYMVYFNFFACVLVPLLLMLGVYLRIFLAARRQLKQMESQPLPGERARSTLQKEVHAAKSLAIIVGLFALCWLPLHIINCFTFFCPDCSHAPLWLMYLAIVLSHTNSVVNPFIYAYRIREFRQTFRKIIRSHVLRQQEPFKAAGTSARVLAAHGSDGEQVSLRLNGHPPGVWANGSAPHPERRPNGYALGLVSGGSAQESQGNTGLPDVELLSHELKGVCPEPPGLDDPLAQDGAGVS
# number only, unit µM dropped from output

## Input // output Ki; input "CCOC(=O)c1cnc(NCc2ccccc2)n2nc(-c3ccco3)nc12" ; system Adenosine receptor A2a (Homo sapiens)
## Output 0.032

## Input // output Ki; input "CCOC(=O)c1cnc(NC(=O)Cc2ccccc2)n2nc(-c3ccco3)nc12" ; system Adenosine receptor A2a (Homo sapiens)
## Output 42.7

## Input // output Ki; input "CCCCCNc1ncc(C(=O)O)c2nc(-c3ccco3)nn12" ; system Adenosine receptor A2a (Homo sapiens)
## Output 26.9

====

List of log10(Ki) tested on Adenosine receptor A2a (Homo sapiens).
Field: value | Transform: log10 | Quantity: Ki | Unit: nM

{"columns": ["compound", "log10(Ki)"],
 "data": [
  ["CC(C)Nc1ncc(C(=O)O)c2nc(-c3ccco3)nn12", 3.88],
  ["O=C(Nc1ncc(C(=O)O)c2nc(-c3ccco3)nn12)NC1CCCCC1", 4.39]
]}

## Input // output log10(Ki); input "CCOC(=O)c1cnc(NCCOC)n2nc(-c3ccco3)nc12" ; system Adenosine receptor A2a (Homo sapiens)
## Output 2.47

## Input // output log10(Ki); input CCCCC(CC)CNc1ncc(C(=O)OCC)c2nc(-c3ccco3)nn12 (configuration not stated) ; system Adenosine receptor A2a (Homo sapiens)
## Output 2.33

====

# target.entity: Adenosine receptor A2b (Homo sapiens)
# Sequence (P29275 whole entry): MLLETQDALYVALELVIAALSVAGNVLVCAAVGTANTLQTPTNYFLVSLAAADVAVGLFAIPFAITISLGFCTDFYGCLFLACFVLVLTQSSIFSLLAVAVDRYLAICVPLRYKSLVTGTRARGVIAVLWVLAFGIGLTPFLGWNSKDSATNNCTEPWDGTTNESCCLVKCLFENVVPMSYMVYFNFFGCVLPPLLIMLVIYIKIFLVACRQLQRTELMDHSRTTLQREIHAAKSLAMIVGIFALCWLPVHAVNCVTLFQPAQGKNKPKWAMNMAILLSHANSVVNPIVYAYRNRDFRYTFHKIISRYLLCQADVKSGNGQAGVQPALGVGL
# assay.notes: Antagonist activity at human adenosine A2B receptor expressed in CHO cells assessed as inhibition of NECA-stimulated adenylyl cyclase activity
# Assay type: functional, cell-based
measured.property: Ki

The cases that follow already have their Ki on record.
{"columns": ["compound", "Ki"],
 "data": [
  ["CCOC(=O)c1cnc(NC(=O)Nc2ccccc2)n2nc(-c3ccco3)nc12", "1900 nM"],
  ["CCCCCNc1ncc(C(=O)O)c2nc(-c3ccco3)nn12", "> 10000 nM"],
  ["O=C(Cc1ccccc1)Nc1ncc(C(=O)NCCc2ccccc2)c2nc(-c3ccco3)nn12", "> 30000 nM"],
  ["CCOC(=O)c1cnc(NCc2ccccc2)n2nc(-c3ccco3)nc12", "2510 nM"]
]}

## Input Given the compound "CCOC(=O)c1cnc(NCc2ccc(F)cc2)n2nc(-c3ccco3)nc12" , write its reported Ki.
## Output 1970 nM

## Input Given the compound "Nc1ncc(C(=O)NCCc2ccccc2)c2nc(-c3ccco3)nn12" , write its reported Ki.
## Output 5320 nM

## Input Given the compound CCCCC(CC)CNc1ncc(C(=O)OCC)c2nc(-c3ccco3)nn12 (stereo unspecified) , write its reported Ki.
## Output > 10000 nM

## Input Given the compound "CCOC(=O)c1cnc(NC2CC2)n2nc(-c3ccco3)nc12" , write its reported Ki.
## Output 2260 nM

## Input Given the compound "O=C(O)c1cnc(NC(c2ccccc2)c2ccccc2)n2nc(-c3ccco3)nc12" , write its reported Ki.
## Output > 30000 nM

## Input Given the compound "CCOC(=O)c1cnc(N)n2nc(-c3ccco3)nc12" , write its reported Ki.
## Output 1110 nM

## Input Given the compound "CCOC(=O)c1cnc(NC(c2ccccc2)c2ccccc2)n2nc(-c3ccco3)nc12" , write its reported Ki.
## Output > 30000 nM
